target_system: T1, Source 1 VEGF-D, mature dimeric recombinant human VEGF-D (CSIRO) (human, UniProt O43915 89-205)
T1 construct: Whole entry named; also called Source 1 VEGF-D dimer; VEGF-D dimer
T1 sequence: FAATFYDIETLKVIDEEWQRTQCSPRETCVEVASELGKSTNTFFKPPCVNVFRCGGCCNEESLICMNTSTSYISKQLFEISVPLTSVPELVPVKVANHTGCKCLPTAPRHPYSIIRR
test_description: SPR Protocol A: IgG captured by anti-human Fc, VEGF-D dimer as analyte
metric_name: koff (s⁻¹)

INSERT INTO assay_data (binder, metric_name, recorded_number) VALUES
  ('Ig-1A, humanized IgG reformatted from scFv 1A (antibody, V domains shown, IgG made in mammalian cells; also called humanized Ig-1A) VH: QVQLVQSGAEVKQPGASVKVSCKASGYTFTGYNMYWVRQAPGQGLEWMGYIDPYNGDTTYNQKFKGRVTMTTDTSTSTAYMELRSLRSDDTAVYYCARTSYYGGMDYWGRGTLVTVAS VL: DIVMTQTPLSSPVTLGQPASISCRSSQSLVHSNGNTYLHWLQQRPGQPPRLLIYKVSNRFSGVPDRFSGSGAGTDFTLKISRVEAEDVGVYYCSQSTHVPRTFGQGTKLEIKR', 'koff', 0.00049),
  ('humanized IgG antibody derived from clone HH41 (antibody, V domains shown, IgG; also called HH41#1; HH41#2) VH: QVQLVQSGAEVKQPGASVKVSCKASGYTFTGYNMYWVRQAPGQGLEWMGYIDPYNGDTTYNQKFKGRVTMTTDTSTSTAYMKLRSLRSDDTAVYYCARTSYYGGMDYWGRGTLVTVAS VL: DIVMTQTPLSSPVTLGQPASISCRSSQSLVHGNGNTYLHWLQQRPGQPPRLLIYKVSNRFSGVPDRFSGSGAGTDFTLKISRVEAEDVGVYYCSQSTHVPRTFGQGTKLEIKR', 'koff', 0.00019),
  ('humanized IgG antibody derived from clone DI26 (antibody, V domains shown, IgG) VH: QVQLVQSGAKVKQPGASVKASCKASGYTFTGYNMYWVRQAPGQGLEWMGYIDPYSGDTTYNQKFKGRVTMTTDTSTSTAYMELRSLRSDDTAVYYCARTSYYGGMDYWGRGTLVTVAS VL: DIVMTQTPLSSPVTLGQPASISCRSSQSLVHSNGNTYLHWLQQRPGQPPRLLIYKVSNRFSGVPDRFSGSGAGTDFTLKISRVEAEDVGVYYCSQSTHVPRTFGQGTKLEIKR', 'koff', 0.00039);

// data source = patent US20120093811A1
